The reported measurements were obtained from paper PMC6151990.

- test-method-notes: Transcellular transport across MDCK cell monolayer
- Type: in vitro ADME, Canine
- condition-context: dog; MDCK monolayer, integrity control; read-out: permeability value
endpoint: Papp (×10⁻⁶ cm/s)
Give your result in ×10⁻⁶ cm/s as a bare value.

Provide measured Papp value, entry: O=C1OC2(c3ccc(O)cc3Oc3cc(O)ccc32)c2ccccc21 [fluorescein, reference compound] 0.702

---

- test-method-notes: Transcellular transport across MDCK cell monolayer
- Assay type: in vitro ADME, Canine
- condition-context: dog, pH 7.4; MDCK, DL0410 10 μM
endpoint: Papp B→A at 2 h, 10 µM

Give Papp B→A at 2 h, 10 µM for the following compound: `O=C(CCN1CCCCC1)c1ccc(-c2ccc(C(=O)CCN3CCCCC3)cc2)cc1` 0.708 ×10⁻⁶ cm/s

---

- Test system: P-gp
- test-method-notes: Transcellular transport across MDCK-MDR1 cell monolayer
- Assay type: in vitro ADME, Canine
- condition-context: dog, pH 7.4; MDCK-MDR1, DL0410 30 μM; read-out: ER
endpoint: efflux ratio at 2 h, 30 µM
Note: the reply should be a number with no unit written.

For P-gp, give efflux ratio at 2 h, 30 µM of the listed molecule: `O=C(CCN1CCCCC1)c1ccc(-c2ccc(C(=O)CCN3CCCCC3)cc2)cc1` 10.3

---

- test-method-notes: Transcellular transport across MDCK cell monolayer
- Format: in vitro ADME, Canine
- condition-context: dog, pH 7.4; MDCK, DL0410 30 μM
endpoint: Papp B→A at 2 h, 30 µM (×10⁻⁶ cm/s)
Return type: number; implicit unit ×10⁻⁶ cm/s.

Read the entry `O=C(CCN1CCCCC1)c1ccc(-c2ccc(C(=O)CCN3CCCCC3)cc2)cc1` and write its reported Papp B→A at 2 h, 30 µM. 0.871

---

- test-method-notes: Transcellular transport across MDCK cell monolayer
- Assay type: in vitro ADME, Canine
- condition-context: dog, pH 7.4; MDCK, DL0410 100 μM
endpoint: Papp A→B at 2 h, 100 µM (×10⁻⁶ cm/s)
Write the value in ×10⁻⁶ cm/s as a bare number.

Output Papp A→B at 2 h, 100 µM of `O=C(CCN1CCCCC1)c1ccc(-c2ccc(C(=O)CCN3CCCCC3)cc2)cc1` 0.95

---

- test-method-notes: Transcellular transport across MDCK cell monolayer
- Format: in vitro ADME, Canine
- condition-context: dog, pH 7.4; MDCK, DL0410 100 μM
endpoint: Papp B→A at 2 h, 100 µM (nm/s)
The response must be a number in nm/s with no trailing unit.

Identify measured Papp B→A at 2 h, 100 µM associated with `O=C(CCN1CCCCC1)c1ccc(-c2ccc(C(=O)CCN3CCCCC3)cc2)cc1` 9.24

---

- test-method-notes: Transcellular transport across MDCK cell monolayer
- Assay type: in vitro ADME, Canine
- condition-context: dog, pH 7.4; MDCK, DL0410 100 μM; read-out: ER
endpoint: efflux ratio at 2 h, 100 µM
Please give the numeric answer without any surrounding text.

Input O=C(CCN1CCCCC1)c1ccc(-c2ccc(C(=O)CCN3CCCCC3)cc2)cc1 [DL0410] , output reported efflux ratio at 2 h, 100 µM. 0.973

---

- test-method-notes: Transcellular transport across Caco-2 cell monolayer
- Type: in vitro ADME
- condition-context: human, pH 7.4; Caco-2, DL0410 10 μM
endpoint: Papp B→A at 2 h, 10 µM
Quote the value and follow it with the unit of measurement.

Consider the compound `O=C(CCN1CCCCC1)c1ccc(-c2ccc(C(=O)CCN3CCCCC3)cc2)cc1` and give its recorded Papp B→A at 2 h, 10 µM. 3.27 ×10⁻⁶ cm/s
